# Experiment Summary: yeast display, Sf9 membrane polyspecificity reagent, FACS + sequencing; frameworks hold sequencing errors
Readout Name: polyreactivity (PSR sort gate)

Residue Codes: QVQHVESGGGLVQAGGSLRLSCAASVLIFYIYAMGWYRQAPGKERELVAAITTGGRTNYADSVKGRFTISRDNAKNTVYLQMKSLKPEDTEVYYCAKDFPIWISHGPDTDNDYGGQGTQVTVSS
Readout Name: polyreactivity (PSR sort gate)
Measured Result: low polyreactivity

Residue Codes: QVQLVESGGGLVQAGGSLRLSCAASGRILDYNAMGWYIQAPGKERELVAAITLNGGGTYYADSVKGRFTISRDNAKNSVYLQMNSLKPEDTAVYYCNADYRRYPEFDYWGQGTHVTVSS
Readout Name: polyreactivity (PSR sort gate)
Measured Result: high polyreactivity

Residue Codes: QVQLVESGGGLVQAGGSLRLSCGASGRTFQFYAMGWYRQAPGKERELVAAISRSSGSTTYADSVKGRFTISRDNAKNTVYLQMNSLKPEDTAVYYCAARRKGKARVPQYDYWGQGTQVTVSS
Readout Name: polyreactivity (PSR sort gate)
Measured Result: high polyreactivity

Residue Codes: QVQLVESGGGLVQAGGSLRLSCAASGRTFGQYVMGWYRQAPGKERELVAAISSGDSTNYADSVKGRFTISRDNAKNTVYFQMNSLKPEDTAVYYCAAVYWVLWQGSTYGYWGQGTQVTVSS
Readout Name: polyreactivity (PSR sort gate)
Measured Result: low polyreactivity

Residue Codes: QVQLVESGGGLVQAGGSLRLSCAASGRTFGWYTMGWYRKAPGKVRELVAGISSSGGSTYYADSVKGRFTISRDNAKNTVYLQMNSLKPEDTAVYYCARETYPHGLYYRPYDYWGQGTQVTVSS
Readout Name: polyreactivity (PSR sort gate)
Measured Result: low polyreactivity

Residue Codes: QVQLVESGGGLVQAGGSLRLSCAASGFTFSLYAMGWYRQAPGKERELVARISDSGGGTYYADSVKGRFTISRDNAKNTVYLQMNSLKPEDTAVYYCAAVSVWYVTSTSYRYWRYDYWGQGTQVTVSS
Readout Name: polyreactivity (PSR sort gate)
Measured Result: high polyreactivity

Residue Codes: QVQLVETGGGLVQAGSSLRLSCAASGSTFIVYAMGWYRQAPGKEREFVAAITYRGGSSYYADSVKGRFTISRDNAKNTVYLQMNSLKPEDTAVYYCATETDRYPYIRRYQFPYYYWGQGTQVTVSS
Readout Name: polyreactivity (PSR sort gate)
Measured Result: high polyreactivity

Residue Codes: QVQLVESGGGLVQAGGSLRLSCAASGSTFGRNAMGWYRQAPGKERELVAAISWSASRTYYADSVKGRFTISRDNAKNTVYLQMNSLIPDDTAVYYCAAEYDVGYFGYEYWGQGTQVTVSS
Readout Name: polyreactivity (PSR sort gate)
Measured Result: high polyreactivity

Residue Codes: QVQLVESGGGLVQAGGSLRLSCAASGSIFYGNTMGWYRQAPGKERELVAAISSGGSTKYADSVKGRFTISRDNAKNTVYLQMNSLKPEDTAVFYCAADLPRYWVTWMDYWGQGTQVTVSS
Readout Name: polyreactivity (PSR sort gate)
Measured Result: low polyreactivity

Residue Codes: QVQLQDSGGVMVLACGSLRLSCAESGYISWSFTMGWYRKAPGKEREFVAGITYGGITYYADSVKGRFTISRDNAKNSVYLQMNRLKPEDTAVYYCAAPQSYPYVYVYWGHGTQVTVSS
Readout Name: polyreactivity (PSR sort gate)
Measured Result: high polyreactivity

Residue Codes: QVQLVESGGGLDQAGGSLRLSCDASGSSFRKYAMVLYRQAPGKEREFVAAISSSGGRTYYADSVKGRFTISRDNAKYTVYLQMNSLKPEDTSVYYFADDVYSDRYDYWGQGTQVTVSS
Readout Name: polyreactivity (PSR sort gate)
Measured Result: high polyreactivity

Residue Codes: QVQLVESGGGLVQAGGSLRLSCAASGSTFYGYVMGWYRQAPGKERELVAAITWRGTSTYYADSVKGRFTISRDNAKNTVYLQMNSLKPEDTAVYYCRGYYDRDVDYWGQGTQVTVSS
Readout Name: polyreactivity (PSR sort gate)
Measured Result: high polyreactivity

Residue Codes: QVQLVESGGGLVQAGGSLRLSCAASGRTFYVNAMGWYRQAPGKERELVAGISFSDGSTYYADSVKGRFTISRDNAKNTVYLQMNSLKPEDTAVYYCASVGAFDIYYGYGYWGQGTQVTVSS
Readout Name: polyreactivity (PSR sort gate)
Measured Result: low polyreactivity

Residue Codes: QVQLVESGGGLVQAGGSLRLSCAASGSIFRSNAMGWYRQPPGKERELVAAITLSGGSTYYADSVKVRFTISRDNAKNTVYLQMNSLKPEDTAVYYCAAAYYLFSIHDYWGQGNQVTVSS
Readout Name: polyreactivity (PSR sort gate)
Measured Result: low polyreactivity

Residue Codes: QVQLVESGGGLVQAGGSLRLSCAASGSIFNLYGMGWYRQAPGKERELVAGSTSSGGSTHYADSVKGRFTISRDNAKNTVYLQMNSLKPEDTAVYYCAKVWSFPSNYRAYYYWGQGTQVTVSS
Readout Name: polyreactivity (PSR sort gate)
Measured Result: high polyreactivity

Residue Codes: QVQLVESGGGLVQAGGSLRLSCAASGRTVWGYGMGWYRQAPGKERELVATISSGGSTYYADSVKGRFTISRDNAKNTVYLQMNSLKPEDTAVYYCAARPPRTYWRYQSDYWGLGTQVTVSS
Readout Name: polyreactivity (PSR sort gate)
Measured Result: high polyreactivity

Residue Codes: QVQLVESGGGLVQAGGSLRISSAASGRIFVTNAMRWYRQAPGKERELLAAITRGGNTNYADSVKGRFTISRDNAKNTVYLQMNSLKPEDTAVYYCAADTSYDSVYGYFPGYYYWGQGTQVTVSS
Readout Name: polyreactivity (PSR sort gate)
Measured Result: low polyreactivity

Residue Codes: QVQLVESGGGLVQAGGSLRLSCAASGRTFWSNAMGWYRPAPGKERELVAAITWSGGSTSYADSVKGRFTISRDNAKNTVYLQMNSLKPEDTAVYYCAAGKGVELAKLDYWGQGTQVTVSS
Readout Name: polyreactivity (PSR sort gate)
Measured Result: low polyreactivity

Residue Codes: QVQLVESGGGLVQAGGSLRLSCAASGRTFYKNTMGWYRQAPGKERELVATIYQRGGSTYYADSVKGRFTISRDNAKNTVYLQMNSLKREDTAVYYCNARKYTQSIHYDYWGQGTQVTVSS
Readout Name: polyreactivity (PSR sort gate)
Measured Result: high polyreactivity

Residue Codes: QVQLVESGGGLVQAGGSLRLSCAASGRTFRTYTMGWYRQAPGKERELVAAISIGGRTNYADSVKGRFTISRDNAKNTVFLQMNSLKPEDTAVYYCIAARWVPRSYGYWGLGTQVTVSS
Readout Name: polyreactivity (PSR sort gate)
Measured Result: high polyreactivity

Residue Codes: QVQLVESGGGLVQAGGSLRLSCAASGFTFARNTMGWYRQAPGKEREFVAVITNRGGSTYYADSVKGRFTISRDNAKNTVYLQMNSLKPEDTAVYYCAARKKHSGYGRGNYWGQGTQVTVSS
Readout Name: polyreactivity (PSR sort gate)
Measured Result: high polyreactivity

---

# Experiment Summary: yeast display, Sf9 membrane polyspecificity reagent, FACS + sequencing; frameworks hold sequencing errors
Readout Name: polyreactivity (PSR sort gate)

Residue Codes: QVQLVESGGGLVQAGGSLRLSCAASGIIFVRYAMGWYRQAPGKERELVAAISSGGGSTYYADSVKGRFTISRDNAKNTVYLQMNSLKPEDTAVYYCATVVYPYSPRYDYWGQGTQVTVSS
Measured Result: high polyreactivity
--
Residue Codes: QVQLVESGGGLVQAGGSLRLSCAASGITFYGYAMGWYRQAPGKERELVARISRSGGSTYYADSVKGRFTISRDNAKNTVYLQMNSLKPEDTAVYYCAAGYGPSGYTRYYWGQGTQVTVSS
Measured Result: high polyreactivity

---

# Experiment Summary: yeast display, Sf9 membrane polyspecificity reagent, FACS + sequencing; frameworks hold sequencing errors

Residue Codes: QVQLVESGGGLVQAGGSLRLSCAASGFTFNYYAMGGYRPAPGKERELVAAISTGGSTYYADSVKGRFTFSRDNAKNTVYLQMISLKPEDTAVYYCNAKPRYRKADRLDYWGQGTQVTVSS
polyreactivity (PSR sort gate): high polyreactivity
--
Residue Codes: QDQLVESGGVLVQAGGSLRLSCAASGSIFGYYAMGWYRQAPGKERELVARISYSGGTTYYADSVKGRFTNSRDNAKNTVYLQMNSQIPEDTAVYYCNARIPYSWRYGYWGQGTQVTVSS
polyreactivity (PSR sort gate): high polyreactivity

---

# Experiment Summary: yeast display, Sf9 membrane polyspecificity reagent, FACS + sequencing; frameworks hold sequencing errors

Residue Codes: QVQLVESGGGLVQAGGSLRLSCAASGFTFRYNAMGWYRQAPGKERELVASITYSGGTTTYADSVKGRFTISRDNAKNTVYLQMNSLKPEDTAVYYCAARGYFSGYRVYYWGQGTQVTVSS
polyreactivity (PSR sort gate): high polyreactivity

Residue Codes: QVQLVVSGGGLVQAGGSLRLSCAASGSTIASNAMGWYRQAPGKERELVAGISSSDGGTYYADSVKGRFTISRDNAKNNVYLEMNSLKREDTAVYYCNAPPGTFQWQGHSDYWGQGTQVTVSS
polyreactivity (PSR sort gate): low polyreactivity

Residue Codes: QVQLVESGGGLVQAGGSLRLSCAASGRISSYYAMGWYRQAPGKDREFVARIRWSGGSTYYADSVKGRFTISRDNAKNTVYLQMNSLKPEDTAVYYCAAVPYAYGYTYDYWGQGTQVTVSS
polyreactivity (PSR sort gate): high polyreactivity

Residue Codes: PVQLVESGGGLVQAGGSLRLSCAASGRIFAQYAMGWYRQAPGNERELVADISSGVRTYAASVKGRFTISRDNAKNTVSFQMNSLKPEDTAVYYFNAYYIIFTRNDYWGQGTQVTVSS
polyreactivity (PSR sort gate): low polyreactivity

Residue Codes: QVQLVESGGGLVHAGGSLRLSCAASGSTFTRNAMGWYRQAPGKERELVATISWRSGSTYYADSVKGRFTISRDNAKNTVYLQMNSLKQEDTAGYYCAADYLNIYNYWGQGTQVTVSS
polyreactivity (PSR sort gate): high polyreactivity

Residue Codes: QVQLVESGGGLVQAGGSLRLSCAASGGTFPRNAMGWYRQAPGKERELVAAISRRGGSTYYADSVKGRFTISRDNAKNTVYLQMNSLKPEDTAVYYCATVQDKTYEYGYWGQGTQVTVSS
polyreactivity (PSR sort gate): high polyreactivity

Residue Codes: QVQLVESGGGLDQAGVSLRLSCAASGNIFSWNTMGWYRPAPGKERELVAAITFRGTRTFYADSVKGRFTISRDNAKNNVYLHMNSLKPEDTAVYYSAARYYYSYSLGYDYWGQGTQVTLSS
polyreactivity (PSR sort gate): high polyreactivity

Residue Codes: QVQLVESGGGLVQAGGSLRLSCAASGRIPAYAMGWYRQAPWKERELVAAITWSGGSTYYADSVKGRFTISRDNAKNTVYLQMISLKPEDTSVDYCAAKQWGRYGYWGKGTQVTVSS
polyreactivity (PSR sort gate): high polyreactivity

Residue Codes: QVQLVESGGGLVQAGGSLRLSCAASGRTLGYNAMGWYRQAPGKARELVASINSGVSTNYADSVQGRFTISRDNAKNTVYLQMNSLKPEDTAVYYCAAEKYGRGAGREGWESDYWGQGTQVTVSS
polyreactivity (PSR sort gate): low polyreactivity

Residue Codes: QVQLVESGGGLVQAGGSLSLSCAASGFIFRGYAMGWNRQAPGKEREFVAAISRRGGSTYYADSVKGRFTISRDNAKNTVYLQMNSLKPEDTAVYYCAARYSPVWHKYYYWGQGTEVTVSS
polyreactivity (PSR sort gate): high polyreactivity

Residue Codes: QDQLVESGGGLVQAGGSLRLSCAASGRTFTHYALGWYRQAPGKERELVAAISWSGGITYYADSVKGRFTISRDYAKNTVYLQMNSLKPEDTAVYYCAAEHYFSGYYYWGQGTQVTVSS
polyreactivity (PSR sort gate): high polyreactivity
